So I've got a bunch of compounds here, and I need their inhibition at 10 µM values.
Molecular target: human PDE7A (Homo sapiens, UniProt Q13946)
Construct: expressed in transfected cells; host or cells: AD293 (transient transfection)
Sequence (Q13946 whole entry): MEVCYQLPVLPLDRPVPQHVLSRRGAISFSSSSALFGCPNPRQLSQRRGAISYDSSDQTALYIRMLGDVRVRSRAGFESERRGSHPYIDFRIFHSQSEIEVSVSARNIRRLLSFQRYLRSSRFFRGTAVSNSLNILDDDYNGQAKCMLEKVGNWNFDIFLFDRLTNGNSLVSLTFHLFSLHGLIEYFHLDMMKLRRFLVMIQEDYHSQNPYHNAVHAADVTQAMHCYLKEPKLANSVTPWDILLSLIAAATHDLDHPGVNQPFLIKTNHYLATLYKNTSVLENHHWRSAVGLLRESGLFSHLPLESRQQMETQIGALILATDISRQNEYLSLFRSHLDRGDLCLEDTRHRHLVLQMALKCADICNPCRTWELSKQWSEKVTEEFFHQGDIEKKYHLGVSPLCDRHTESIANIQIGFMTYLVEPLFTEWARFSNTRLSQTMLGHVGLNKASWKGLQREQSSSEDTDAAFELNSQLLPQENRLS
Assay: Phosphodiesterase activity, AD293 cells transiently transfected with human PDE7A
Assay type: biochemical
Settings: 10 µM compound; read-out: Percentage inhibition at 10µM (PDE7A)
Protocol: The activity measurements against the phosphodiesterases PDE7A, PDE7B, PDE9A and PDE10A were performed using AD293 cells that were transiently and separately transfected with human PDE7A, PDE7B, PDE9A, and PDE10A following the procedure described by Shipe et al..
# value in %; strip the unit string

Form entry - test system: human PDE7A (Homo sapiens, UniProt Q13946); read-out: inhibition at 10 µM; compound: N#Cc1c(C2CCCCC2)cc(-c2ccco2)nc1N [Compound 13]
44

Now consider Cn1cccc1-c1cc(-c2ccccc2)c(C#N)c(N)n1 [Compound 4] and answer again.
50

Now consider N#Cc1c(-c2ccccc2)cc(-c2ccc(F)cc2)nc1N [Compound 1] and answer again.
9

Now consider N#Cc1c(C2CCCCC2)cc(-c2ccccc2F)nc1N [Compound 9] and answer again.
19

Now consider COc1ccccc1-c1cc(-c2ccc(O)cc2)nc(N)c1C#N [Compound 22] and answer again.
63

Now consider N#Cc1c(-c2ccc3c(c2)OCO3)cc(-c2ccccc2)nc1N [Compound 7] and answer again.
22

Now consider N#Cc1c(C2CCCCC2)cc(-c2ccccc2)nc1N [Compound 8] and answer again.
26

Now consider N#Cc1c(-c2ccco2)cc(-c2ccsc2)nc1N [Compound 25] and answer again.
48

Now consider COc1ccccc1-c1cc(-c2ccccc2C)nc(N)c1C#N [Compound 20] and answer again.
31

Now consider N#Cc1c(C2CCCCC2)cc(-c2cccs2)nc1N [Compound 11] and answer again.
33

Now consider N#Cc1c(-c2ccc(O)cc2)cc(-c2ccc(O)cc2)nc1N [Compound 24] and answer again.
47

Now consider COc1ccccc1-c1cc(-c2ccccc2F)nc(N)c1C#N [Compound 19] and answer again.
49

Now consider Cc1ccccc1-c1cc(C2CCCCC2)c(C#N)c(N)n1 [Compound 10] and answer again.
31

Now consider COc1ccc(-c2cc(-c3ccccc3F)nc(N)c2C#N)cc1 [Compound 14] and answer again.
22

Now consider N#Cc1c(C2CCCCC2)cc(-c2ccsc2)nc1N [Compound 12] and answer again.
29

Now consider COc1ccc(-c2cc(-c3ccccc3)nc(N)c2C#N)c(OC)c1 [Compound 6] and answer again.
51
